# system_under_test: Gal(a1-6)Glc
# protocol_details: glycan array binding signal (z-score within array); higher = stronger binding
# test_parameters: glycan notation: IUPAC condensed, linker removed
Only a selection was taken, and the strongest signals are over-represented in it overall.
Entries and their glycan array binding signal (z-score)
Write the value as a bare number.

Some binders with known glycan array binding signal (z-score) results, for comparison:
binder="Epa6 (Candida glabrata), Q6DTM7_CANGB (protein) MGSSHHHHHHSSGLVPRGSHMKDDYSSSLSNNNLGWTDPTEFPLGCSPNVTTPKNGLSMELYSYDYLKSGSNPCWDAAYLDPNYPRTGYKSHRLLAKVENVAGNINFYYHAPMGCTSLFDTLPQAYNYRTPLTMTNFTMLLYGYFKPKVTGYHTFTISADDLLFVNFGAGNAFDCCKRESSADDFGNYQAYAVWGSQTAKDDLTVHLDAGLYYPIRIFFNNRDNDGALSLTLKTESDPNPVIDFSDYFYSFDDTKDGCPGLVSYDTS" recorded_result=8.63
binder="Galatrox (Botrops atrox), P0DM53 (protein) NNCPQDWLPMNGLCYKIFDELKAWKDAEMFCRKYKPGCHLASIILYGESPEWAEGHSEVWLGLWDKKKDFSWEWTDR" recorded_result=-0.37

Sure, the documented glycan array binding signal (z-score) for Mg1lysM (Mycosphaerella graminicola) (protein) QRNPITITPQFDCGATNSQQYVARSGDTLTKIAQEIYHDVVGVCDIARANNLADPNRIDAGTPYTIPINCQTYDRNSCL is -0.075

Sure, the documented glycan array binding signal (z-score) for PEB3 Cj0289c (Campylobacter jejuni), Q9PIK7 (protein) MDVNLYGPGGPHTALKDIANKYSEKTGVKVNVNFGPQATWFEKAKKDADILFGASDQSALAIASDFGKDFNVSKIKPLYFREAIILTQKGNPLKIKGLKDLANKKVRIVVPEGAGKSNTSGTGVWEDMIGRTQDIKTIQNFRNNIVAFVPNSGSARKLFAQDQADAWITWIDWSKSNPDIGTAVAIEKDLVVYRTFNVIAKEGASKETQDFIAYLSSKEAKEIFKKYGWRE is 1.25

Sure, the documented glycan array binding signal (z-score) for SJCP3842 (Schistosoma japonicum) (protein) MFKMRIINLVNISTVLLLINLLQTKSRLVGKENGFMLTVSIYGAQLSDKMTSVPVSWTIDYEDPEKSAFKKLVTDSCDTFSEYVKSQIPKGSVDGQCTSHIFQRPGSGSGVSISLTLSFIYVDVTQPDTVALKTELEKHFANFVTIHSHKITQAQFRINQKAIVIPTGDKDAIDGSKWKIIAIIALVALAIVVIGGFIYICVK is -1.59

Sure, the documented glycan array binding signal (z-score) for FedF (Escherichia coli), Q47212 (protein) MRLKYILIIPLLLISLSVFASTLQVDKSVSYDWINSSASSAQVTGTLLGTGKTNTTQMPALYTWQHQIYNVNFIPSSSGTLTCQAGTILVWKNGRETQYALECRVSIHHSSGSINESQWGQQSQVGFGTACGNKKCRFTGFEISLRIPPNAQTYPLSSGDLKGSFSLTNKEVNWSASIYVPAIAKSYRLDTSITLPDTVNLKQNQATPVYYTFSAPSVSNTITGIPNQNDMPSSNVKLTIGPIQSKTTALYVQPDATGSWYDLSKSITMTVVKSSMLNFKGINAKPGNVTLSVPIVFEIQ is 0.241

Sure, the documented glycan array binding signal (z-score) for CV-2L (Chromobacterium violaceum), Q7NX84 (protein) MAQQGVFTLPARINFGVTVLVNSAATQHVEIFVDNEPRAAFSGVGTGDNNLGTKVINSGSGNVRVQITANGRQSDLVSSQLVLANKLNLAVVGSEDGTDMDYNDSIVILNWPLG is -0.347
